B1: CPEB3 Ribozyme (parent)
chain: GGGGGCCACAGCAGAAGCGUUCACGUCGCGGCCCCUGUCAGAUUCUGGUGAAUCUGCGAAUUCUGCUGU

variants of: B1; experiment: self-cleavage, relative activity (ratio to wild type); higher = more cleavage; co-transcriptional
quantityMeasured: self-cleavage

[
  {
    "variantDesignation": "U21A G47A",
    "self-cleavage": 0.969
  },
  {
    "variantDesignation": "A13G G41A",
    "self-cleavage": 0.448
  },
  {
    "variantDesignation": "C63A G68C",
    "self-cleavage": 0.931
  },
  {
    "variantDesignation": "C54A G56A",
    "self-cleavage": 0.695
  }
]

self-cleavage for A15U U53G ?
0.566

# repeat for C12A G56C
0.348

# repeat for G30C G58A
0.359

# repeat for G14C C34A
0.406

# repeat for C54U U62A
0.901

# repeat for U38A C54U
0.911

# repeat for G14U G50A
0.812

# repeat for A15U U38A
0.548

# repeat for G25U U55G
0.146

# repeat for C7G C24U
0.107

# repeat for A8G G25C
0.0474
